Catalogue of Residual activity values
- Test system: HPPD polypeptides (wild-type SEQ ID NO:1 and mutants)
- MEASUREMENT PARAMETERS: in the presence of Cmpd. 1, 15 μM inhibitor, high substrate concentration; kapp normalized to kapp without inhibitor
Please state the figure in %; there is no need to write the unit.

In: # input molecule: 19 (protein, mutant HPPD polypeptide) MADLYENPMGLMGFEFIEFASPTPGTLEPIFEIMGFTKVATHRSKNVHLYRQGEINLILNNEPNSIASYFAAEHGPSVCGMAFRVKDSQKAYNRALELGAQPIHIDTGPMELNLPAIKGIGGAPLYLIDRFGEGSSIYDIDFVYLEGVERNPVGAGLKVIDHLTHNVYRGRMVYWANFYEKLFNFREARYFDIKGEYTGLTSKAMSAPDGMIRIPLNEESSKGAGQIEEFLMQFNGEGIQHVAFLTDDLVKTWDALKKIGMRFRTAPGDEYYEMLEGRLPDHGEPVDQLQARGILLDGSSVEGDKRLLLQIFSETLMGPVFFEFIQRKGHDGFGPDSFKVLFESVERDQVRRGVLTAD ; wanted: its Residual activity
Out: 68

Okay, next one:
In: Reported Residual activity for 8 (protein, mutant HPPD polypeptide) MADLYENPMGLMGFEFIEFASPTPGTLEPIFEIMGFTKVATHRSKNVHLYRQGEINLILNNEPNSIASYFAAEHGPSVCGMAFRVKDSQKAYNRALELGAQPIHIDTGPMELNLPAIKGIGGAPLYLIDRFGEGSSIYDIDFVYLEGVERNPVGAGLKVIDHLTHNVYRGRMVYWANFYEKLFNFREARYFDIKGEYTGLTSKAMSAPDGMIRIPLNEESSKGAGQIEEFLMQFNGEGIQHVAFLTDDLVKTWDALKKIGMRFMTAPPDTYYEMLEGRLPDHGEPVDQLQARGILLDGSSVEGDKRLLLQIFSETLMGPVFFEFIQRKGDDGFGPDSFKVLFESIERDQVRRGVLTAD : what is it?
Out: 21
